# TEST TARGET: B.1.351 Spike (SARS-CoV-2 spike protein, South African variant B.1.351) (SARS-CoV-2)
pKd: −log10 of the molar value.

BINDER	RELATION OPERATOR	pKd
Ab 29 scFv-Fc (scFv, V domains shown) VH: QVQLQQSGPGLVKPSQTLSLTCAISGDSVSSYSDAWNWIRQSPSRGLEWLGRTYYRSKWYNDYAVSVKSRITINPDTSKNQFSLQLSSVTPEDTAVYYCAREIVATTPFRNYYYGMDVWGQGTTVTVSS VL: NFMLTQPHSVSESPGNTVTISCTRTSGSIASNYVQWYQQRPGSSPTTVIFQDKLRPSGVPDRFSGSIDSSSNSASLTISGLKTEDEADYYCQSYDSSSLWVFGGGTKLTVL	=	9.43
Ab 30 scFv-Fc (scFv, V domains shown) VH: QVQLVQSGGGVVQPGKSLRLSCTASGFTFSDFPIHWVRQAPGKGLEWVGVISYDGNIKYYGDSVKGRFTISRDNAKNSLYLQMNSLRVEDTAVYYCARGGSSFDIWGQGTTVTVSS VL: SYELTQPPSVSEAPRQRVTISCSGSTSNIGNNAVSWYQHLPGKAPKLLIYYNERLPSGVSDRFSGSKSGTSASLAISGLRSEDEADYYCAAWDDSLSGHVVFGGGTKLTVL	>	12.00
Ab 31 scFv-Fc (scFv, V domains shown) VH: QVQLVQSGAEVKKPGSSVKVSCKASGGTFSSYTISWVRQAPGQGLEWMGGIIPILGTPNYAQKFQDRVAITADKSTSTAYMELSSLRSEDTAVYYCAVGSGWYSGFDYWGQGTLVTVSS VL: NFMLTQPHSVSESPGKTVTISCTGSSGSIASNYVQWYQQRPGSAPTTVIYEDSQRPSGVPDRFSGSIDSSSNSASLTISGLKTEDEADYYCQSFHNSNPVIFGGGTKLTVL	>	12.00
Ab 38 scFv-Fc (scFv, V domains shown) VH: QVTLKESGPTLVKPTQTLTLTCTFSGFSLTTSGVSVGWIRQPPGKALEWLALIHWDDDKRYSPSLRSRLTITRDTSKNQVVLTVTDMDPADTGTYYCASFIMTVYAEYFEDWGQGTLVTVSS VL: EIVLTQSPATLSVSPGERATLSCRASQSVSSNLAWYQQKPGQAPRLLMYDVSTRATGIPARFSGSGSGTEFSLTISSLQSEDFAVYYCQQRGAWPLTFGGGTKVEIK	=	11.12
